# system: Peptide 1593 (…) (Mycobacterium tuberculosis)
# procedure details: ELISA, NNK clone supernatant on coated peptide (22 hits)
Each record here notes measured OD450 nm.
Be sure to follow the number with its unit.

binder: 65D3 chimeric Fab, NNK library L5 mutant S to T (VL S27T) (Fab, V domains shown) VH: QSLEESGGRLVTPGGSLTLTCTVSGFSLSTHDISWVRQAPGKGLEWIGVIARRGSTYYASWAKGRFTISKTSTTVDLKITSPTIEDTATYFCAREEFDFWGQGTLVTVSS VL: AVLTQTASPVSAAVGGTVTISCQSSQTVYNNKELSWFQQKPGQPPKLLISYASTLASGVPSRFKGSGSGTQFTLTISDLECDDAATYYCLGGYASTIDMWAFGGGTEVVVK
quantity kind: OD450 nm
measured result: 1.11 OD450

# OD450 nm lookup, item 65D3 chimeric Fab, NNK library L3 mutant S to A (VL S25A) (Fab, V domains shown) VH: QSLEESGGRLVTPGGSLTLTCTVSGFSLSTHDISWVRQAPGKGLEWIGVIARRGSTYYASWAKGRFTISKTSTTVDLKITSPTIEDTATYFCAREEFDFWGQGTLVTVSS VL: AVLTQTASPVSAAVGGTVTISCQSAQSVYNNKELSWFQQKPGQPPKLLISYASTLASGVPSRFKGSGSGTQFTLTISDLECDDAATYYCLGGYASTIDMWAFGGGTEVVVK
0.972 OD450

So what's the measured OD450 nm for this one? 65D3 chimeric Fab, NNK library L2 mutant S to G (VL S24G) (Fab, V domains shown) VH: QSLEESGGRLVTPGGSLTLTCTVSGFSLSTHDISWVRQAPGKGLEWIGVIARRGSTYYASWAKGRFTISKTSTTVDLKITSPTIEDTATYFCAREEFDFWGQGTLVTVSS VL: AVLTQTASPVSAAVGGTVTISCQGSQSVYNNKELSWFQQKPGQPPKLLISYASTLASGVPSRFKGSGSGTQFTLTISDLECDDAATYYCLGGYASTIDMWAFGGGTEVVVK
1.11 OD450

Returns the measured OD450 nm for the input binder. Input: 65D3 chimeric Fab, NNK library L5 mutant S to K (VL S27K) (Fab, V domains shown) VH: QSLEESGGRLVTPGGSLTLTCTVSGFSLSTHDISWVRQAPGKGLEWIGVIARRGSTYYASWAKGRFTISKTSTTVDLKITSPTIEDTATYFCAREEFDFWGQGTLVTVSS VL: AVLTQTASPVSAAVGGTVTISCQSSQKVYNNKELSWFQQKPGQPPKLLISYASTLASGVPSRFKGSGSGTQFTLTISDLECDDAATYYCLGGYASTIDMWAFGGGTEVVVK
1.16 OD450

Can you look up the measured OD450 nm of 65D3 chimeric Fab, NNK library L3 mutant S to K (VL S25K) (Fab, V domains shown) VH: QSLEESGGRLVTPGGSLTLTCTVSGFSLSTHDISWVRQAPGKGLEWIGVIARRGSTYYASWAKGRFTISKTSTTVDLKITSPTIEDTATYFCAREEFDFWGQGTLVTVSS VL: AVLTQTASPVSAAVGGTVTISCQSKQSVYNNKELSWFQQKPGQPPKLLISYASTLASGVPSRFKGSGSGTQFTLTISDLECDDAATYYCLGGYASTIDMWAFGGGTEVVVK for me?
0.982 OD450
